drug sensitivity score reference
Test system: KURAMOCHI
assayProcedure: drug sensitivity score (DSS2) on cancer cell count; higher = more sensitive; extreme values may be limits of the assay
conditionSet: co-cultured fibroblast: WI38; 72 h
Respond with the bare value in DSS.

Worked examples follow.
molecule	drug sensitivity score (DSS)
CC(C)(C#N)c1cc(Cn2cncn2)cc(C(C)(C)C#N)c1 [Anastrozole]	0
C[C@]12C=CC(=O)C=C1CC[C@@H]1[C@@H]2[C@@H](O)C[C@@]2(C)[C@H]1CC[C@]2(O)C(=O)CO [Prednisolone]	0

Here is the next item to consider.
Query: Request the reported drug sensitivity score associated with COCC[n+]1c2c(n(Cc3cnccn3)c1C)C(=O)c1ccccc1C2=O [Sepantronium bromide]
Response: 30

---

The following molecules are listed with their measured drug sensitivity score values.
System: KURAMOCHI
assayProcedure: drug sensitivity score (DSS2) on cancer cell count; higher = more sensitive; extreme values may be limits of the assay
conditionSet: co-cultured fibroblast: WI38; 72 h
Lab book: enter the figure in DSS, no units written.

Some molecules with known drug sensitivity score results, for comparison:
> print(dat)
                                   molecule        measuredproperty  readoutvalue
1  Cc1cc(-c2nc(-c3ccc(OC(F)(F)F)cc3)no2)nn1Cc1ccnc(N2CCN(C3CC3)CC2)c1 [BAY 87-2243]  drug sensitivity score             0
2  CO[C@@H]1[C@H](N(C)C(=O)c2ccccc2)C[C@H]2O[C@]1(C)n1c3ccccc3c3c4c(c5c6ccccc6n2c5c31)C(=O)NC4 [Midostaurin]  drug sensitivity score          14.8

Query: Tell me the measured drug sensitivity score of CC(C)(C)c1cnc(CSc2cnc(NC(=O)C3CCNCC3)s2)o1 [SNS-032] , please.
Response: 18.1

Query: Another molecule to look at: O=c1[nH]c(=O)n([C@H]2C[C@H](O)[C@@H](CO)O2)cc1C(F)(F)F [Trifluridine]
Response: 9.2

Query: Then Cc1ccc(NS(=O)(=O)c2cccc(C#N)c2)c2[nH]cc(C#N)c12 [E7820] ?
Response: 9.7

Query: Here is the next molecule: "Nc1nccc(-c2c(-c3ccc(F)cc3)ncn2C2CCCCC2)n1"
Response: 4

Query: COc1cc2nccc(Oc3ccc(NC(=O)C4(C(=O)Nc5ccc(F)cc5)CC4)cc3)c2cc1OC [Cabozantinib] ?
Response: 0

Query: Next molecule up: COc1nc(N)nc2c1ncn2[C@@H]1O[C@H](CO)[C@@H](O)[C@@H]1O [Nelarabine]
Response: 0

---

Tested on: KURAMOCHI
assayProcedure: drug sensitivity score (DSS2) on cancer cell count; higher = more sensitive; extreme values may be limits of the assay
conditionSet: co-cultured fibroblast: BJHTERT; 72 h
Examples of compounds with documented drug sensitivity score follow.
Hi! Could you send only the number? It should be in DSS, unit omitted.

compound	measuredProperty	readoutValue
O=C(O)c1ccc(O)c2ncccc12 [IOX-1]	drug sensitivity score	3.6
CCCCCCCCCCCCCCCCCCOP(=O)([O-])OC1CC[N+](C)(C)CC1 [Perifosine]	drug sensitivity score	0
O=C(c1ccc(OCCN2CCCCC2)cc1)c1c(-c2ccc(O)cc2)sc2cc(O)ccc12 [Raloxifene]	drug sensitivity score	4
COc1cc(OC2CCN(C)CC2)ccc1Nc1ncc2c(n1)n(C1CCCC1)c(=O)n2C [AZ 3146]	drug sensitivity score	1.8
Nc1nc(NC2CC2)cc(-c2cccc(Cl)c2Cl)n1 [TH588]	drug sensitivity score	6

Query: Kindly state the measured drug sensitivity score obtained for N#Cc1ccnc(N2C(=O)CC[C@H]2C(=O)N(c2cncc(F)c2)[C@H](C(=O)NC2CC(F)(F)C2)c2ccccc2Cl)c1 [Ivosidenib] with KURAMOCHI.
Response: 0

Query: # iterate: C[C@H](Nc1ncnc2nc[nH]c12)c1cc2cccc(Cl)c2c(=O)n1-c1ccccc1 [Duvelisib]
Response: 4.6

Query: Next compound up: Cc1ccc(NS(=O)(=O)c2cccc(C#N)c2)c2[nH]cc(C#N)c12 [E7820]
Response: 6.5

Query: Request: COc1cccc2c1C(=O)c1c(O)c3c(c(O)c1C2=O)C[C@@](O)(C(=O)CO)C[C@@H]3O[C@H]1C[C@H](N)[C@@H](O)[C@H](C)O1 [Epirubicin]
Response: 12.2

Query: What would you report for C#Cc1cccc(Nc2ncnc3cc4c(cc23)OCCOCCOCCO4)c1 [Icotinib] ?
Response: 0

Query: Let us now turn to Cc1cc(Nc2cc(CN3CCOCC3)c3nc(C)c(Cc4ccc(Cl)cc4F)n3n2)n[nH]1 [Gandotinib]
Response: 7.6

Query: # iterate: CCC1=C[C@@H]2CN(C1)Cc1c([nH]c3ccccc13)[C@@](C(=O)OC)(c1cc3c(cc1OC)N(C)[C@H]1[C@@](O)(C(=O)OC)[C@H](OC(C)=O)[C@]4(CC)C=CCN5CC[C@]31[C@@H]54)C2 [Vinorelbine]
Response: 29.3

Query: # repeat for Cc1nc(C(=O)NCC(=O)O)c(O)c2ccc(Oc3ccccc3)cc12 [Roxadustat]
Response: 3

Query: Same read-out for COc1cc(OC)c(/C=C/S(=O)(=O)Cc2ccc(OC)c(NCC(=O)O)c2)c(OC)c1 [Rigosertib] ?
Response: 24

Query: Let us now turn to Cc1cnc(Nc2ccc(OCCN3CCCC3)cc2)nc1Nc1cccc(S(=O)(=O)NC(C)(C)C)c1 [Fedratinib]
Response: 7.9

Query: Also CCN(CC)Cc1ccc2cc(COC(=O)Nc3ccc(C(=O)NO)cc3)ccc2c1 [Givinostat] ?
Response: 8.6
